test: Lipophilicity, log D of the compound; assay type: physicochemical; conditions: octanol/water
Reported logD values are given for each entry in this list.
Just the number, please.

Example entries begin here.
smiles.string	logD
CN1CCN(c2ccc3ncc(-c4cnc(Nc5ncccc5F)nc4)n3n2)CC1	2.2
CN1CCC(Nc2ccc3ncc(-c4ccc(Nc5ncc(F)cc5F)cc4)n3n2)CC1	3.7
Fc1cccnc1Nc1ccc(-c2cnc3ccc(N[C@H]4CC[C@H](N5CCCC5)CC4)nn23)cc1	3.3
N[C@H]1CC[C@H](Nc2ccc3ncc(-c4cnc(Nc5ccccc5)nc4)n3n2)CC1	1.6
N[C@H]1CC[C@H](Nc2ccc3ncc(-c4ccc(Nc5ncc(F)cc5F)cc4)n3n2)CC1	2

logD lookup needed for N[C@H]1CC[C@H](Nc2ccc3ncc(-c4cnc(Nc5ncc(C(F)(F)F)cc5F)nc4)n3n2)CC1 , thanks.
1.6

Sample Cc1ccc(F)c(Nc2ccc(-c3cnc4ccc(NC5CCN(C)CC5)nn34)cc2)n1 — what was its logD?
3.5

Field request: logD | item: CN1CCC(Oc2ccc3ncc(-c4cnc(Nc5ncccc5F)nc4)n3n2)CC1
1.5

What value of measured logD is listed for N[C@H]1CC[C@H](Nc2ccc3ncc(-c4cnc(Nc5ncccc5F)nc4)n3n2)CC1 ?
0.2

###

experiment: Total plasma concentration in NMRI mouse infected with Plasmodium berghei ANKA at 50 mg/kg, po qd administered on day 1 to 3 post infection measured at 1 hr post last dose; type: ADME, organism-based; design: dose 50 mg/kg, route oral
recorded.metric: concentration at 1 h (ng/mL)
# unit: ng/mL | format: bare number

Could you tell me which concentration at 1 h is on file for CN1CCC(Nc2ccc3ncc(-c4ccc(Nc5ncccc5F)cc4)n3n2)CC1 ?
1660

###

test: Lipophilicity, log D of the compound; type: physicochemical; conditions: octanol/water
recorded.metric: logD
The answer should be a number; do not append a unit.

Consider the worked cases shown below.
compound	logD
N[C@H]1CC[C@H](Nc2ccc3ncc(-c4ccc(Nc5ncc(Cl)cc5F)cc4)n3n2)CC1	3.1
CN1CCC(Nc2ccc3ncc(-c4cnc(Nc5ncccc5F)nc4)n3n2)C1 (racemic)	1.5
CN1CCC(Nc2ccc3ncc(-c4ccc(Nc5ncccc5F)cc4)n3n2)CC1	3.2
Fc1cccnc1Nc1ncc(-c2cnc3ccc(N[C@H]4CC[C@H](N5CCCC5)CC4)nn23)cn1	1.9

Switching to the query record.
May I ask what logD has been recorded for CN1CCC(Nc2ccc3ncc(-c4ccc(Nc5ccc(C(F)(F)F)cn5)cc4)n3n2)CC1 ?
3.7

###

assay: Total plasma concentration in NMRI mouse infected with Plasmodium berghei ANKA at 50 mg/kg, po qd administered on day 1 to 3 post infection measured at 4 hrs post last dose; assay type: ADME, organism-based; set-up: dose 50 mg/kg, route oral
recorded.metric: concentration at 4 h (ng/mL)
Quick reminder: number only, in ng/mL, skip the unit.

State the recorded concentration at 4 h for this entry: CN1CCC(Nc2ccc3ncc(-c4ccc(Nc5ncccc5F)cc4)n3n2)CC1
1460

###

experiment: Oral bioavailability in rat at 21 mg/kg; format: ADME, organism-based; conditions: in vivo
recorded.metric: bioavailability

Report bioavailability for CN1CCC(Nc2ccc3ncc(-c4ccc(Nc5ncccc5F)cc4)n3n2)CC1.Cl please.
70%

###

assay: Metabolic stability in human liver microsomes assessed as compound remaining measured at […]; format: ADME; settings: read-out: Stability
Recorded remaining, one value per entry.
// units = %; emit number, no label

smiles.string	endpoint.unit	test.result
CN1CCC(Nc2ccc3ncc(-c4cnc(Nc5ncccc5F)nc4)n3n2)CC1	%	98
CN1CCC(Nc2ccc3ncc(-c4ccc(Nc5ncccc5F)cc4)n3n2)CC1	%	80
Cc1ccc(Nc2ncc(-c3cnc4ccc(N[C@H]5CC[C@H](N)CC5)nn34)cn2)nc1	%	92
CN1CCC(Nc2ccc3ncc(-c4ccc(Nc5cccc(C(F)(F)F)n5)cc4)n3n2)CC1	%	80

Quick one: remaining of CN1CCC(Nc2ccc3ncc(-c4ccc(Nc5ncc(F)cc5F)cc4)n3n2)CC1 ?
78

###

assay: Metabolic stability in mouse liver microsomes assessed as compound remaining measured at 30 mins; type: ADME; conditions: read-out: Stability
Labelling field: enter condition met if recorded remaining at 0.5 h is less than 90%. Enter condition not met if it equals or exceeds that cut-off.

smiles.string	qualitative.label
N[C@H]1CC[C@H](Nc2ccc3ncc(-c4ccc(Nc5ncc(Cl)cc5F)cc4)n3n2)CC1	condition met

Dear colleague, could you confirm whether remaining at 0.5 h of Cc1ccc(Nc2ncc(-c3cnc4ccc(N[C@H]5CC[C@H](N)CC5)nn34)cn2)nc1 falls below 90%? Thanks.
condition not met

State whether 90% exceeds remaining at 0.5 h recorded for CN1CCC(Nc2ccc3ncc(-c4ccc(Nc5ccc(C(F)(F)F)cn5)cc4)n3n2)CC1 .
condition met

Quick check: does Fc1cccnc1Nc1ccc(-c2cnc3ccc(N[C@H]4CC[C@H](N5CCCC5)CC4)nn23)cc1 have remaining at 0.5 h under 90%?
condition met

Input N[C@H]1CC[C@H](Nc2ccc3ncc(-c4cnc(NCc5ccccn5)nc4)n3n2)CC1 ; condition: remaining at 0.5 h strictly below 90%. Does it hold?
condition not met

Please let me know if CN1CCC(Nc2ccc3ncc(-c4ccc(Nc5ncc(F)cc5F)cc4)n3n2)CC1 shows remaining at 0.5 h below 90%.
condition met

Does the reported remaining at 0.5 h of the following molecule sit strictly below 90%? N[C@H]1CC[C@H](Nc2ccc3ncc(-c4ccc(Nc5ncc(F)cc5F)cc4)n3n2)CC1
condition met

Item N[C@H]1CC[C@H](Nc2ccc3ncc(-c4cnc(Nc5ncc(C(F)(F)F)cc5F)nc4)n3n2)CC1 : remaining at 0.5 h beneath 90%, strictly?
condition not met

###

experiment: Metabolic stability in mouse liver microsomes assessed as compound remaining measured at 30 mins; type: ADME; details: read-out: Stability
Each item that follows carries a reported remaining at 0.5 h.
Give your result in % as a bare value.

Given the entry N[C@H]1CC[C@H](Nc2ccc3ncc(-c4cnc(Nc5ccccn5)nc4)n3n2)CC1 , report its measured remaining at 0.5 h.
93

Consider the molecule shown here: Cc1ccc(F)c(Nc2ccc(-c3cnc4ccc(NC5CCN(C)CC5)nn34)cc2)n1 What is its recorded remaining at 0.5 h?
52

GET /values?readout=remaining at 0.5 h&item= CN1CCC(Nc2ccc3ncc(-c4cnc(Nc5ncccc5F)nc4)n3n2)CC1
85

Quick check: remaining at 0.5 h of CN1CCC(Nc2ccc3ncc(-c4ccc(Nc5ncccc5F)nc4)n3n2)CC1 ?
57

Item CN1CCC(Nc2ccc3ncc(-c4ccc(Nc5ncc(Cl)cc5F)cc4)n3n2)CC1 has what recorded remaining at 0.5 h?
61

Give its remaining at 0.5 h value. Item: CN1CCC(Nc2ccc3ncc(-c4ccc(Nc5ncccc5F)cc4)n3n2)CC1
47

If you can, please state the reported remaining at 0.5 h value of CN1CCC(Nc2ccc3ncc(-c4ccc(Nc5cccc(C(F)(F)F)n5)cc4)n3n2)CC1 .
73

Item under review: N[C@H]1CC[C@H](Nc2ccc3ncc(-c4cnc(Nc5ncccc5F)nc4)n3n2)CC1 . Reported remaining at 0.5 h?
85

Consider the molecule Fc1cccnc1Nc1ccc(-c2cnc3ccc(N[C@H]4CC[C@H](N5CCCC5)CC4)nn23)cn1 and give its measured remaining at 0.5 h.
88

What does the record list as remaining at 0.5 h for N[C@H]1CC[C@H](Nc2ccc3ncc(-c4cnc(Nc5ccccc5)nc4)n3n2)CC1 ?
92
